assay: In vitro disulfide cleavage and immolation by incubation with cysteine or glutathione (LC/MS); assay type: physicochemical; conditions: 30 μM cysteine, pH 7.0, 37° C., 24 h

| molecule | displayUnit | Percentage of all products |
| --- | --- | --- |
| C=C1C[C@H]2C=Nc3cc(OCCCCCOc4cc5c(cc4OC)C(=O)N4CC(=C)C[C@H]4C(O)N5C(=O)OCC4(S)CCC4)c(OC)cc3C(=O)N2C1 (stereo partly drawn) [Compound 13] | % | 0.1 |
| C=C1C[C@H]2C=Nc3cc(OCCCCCOc4cc5c(cc4OC)C(=O)N4CC(=C)C[C@H]4C(O)N5C(=O)OCC4(SSC[C@H](N)C(=O)O)CCC4)c(OC)cc3C(=O)N2C1 (stereo partly drawn) [Compound 12a] | % | 66.7 |
| C=C1C[C@H]2C=Nc3cc(OCCCCCOc4cc5c(cc4OC)C(=O)N4CC(=C)C[C@H]4C(O)N5C(=O)OCC4(SSC[C@H](N)C(=O)O)CC4)c(OC)cc3C(=O)N2C1 (stereo partly drawn) [Compound 4a] | % | 75.9 |
| C=C1CC2C=Nc3cc(OCCCCCOc4cc5c(cc4OC)C(=O)N4CC(=C)CC4C(O)N5C(=O)OCC(C)SSCC(N)C(=O)O)c(OC)cc3C(=O)N2C1 (stereo not drawn) [Compound 3a] | % | 75.0 |
| C=C1CC2C=Nc3cc(OCCCCCOc4cc5c(cc4OC)C(=O)N4CC(=C)CC4C(O)N5C(=O)OCC(C)SSc4ccc([N+](=O)[O-])cn4)c(OC)cc3C(=O)N2C1 (stereo not drawn) [Compound 1] | % | 4.5 |
| C=C1C[C@H]2C=Nc3cc(OCCCCCOc4cc5c(cc4OC)C(=O)N4CC(=C)C[C@H]4C(O)N5C(=O)OCC4(SSc5ccc([N+](=O)[O-])cn5)CCC4)c(OC)cc3C(=O)N2C1 (stereo partly drawn) [Compound 11] | % | 4.8 |
